# TESTED TARGET: PIM3 (human) (UniProt Q86V86)
# PROCEDURE TEXT: radiometric filter-binding kinase assay
# COND: compound 1.0 µM
// reported residual activity for each item listed
// note: answer is a bare numeric in %

* Oc1ccc2ccccc2c1SSc1c(O)ccc2ccccc12 | 76
* Cn1nc(Nc2ccc(F)cc2)c2c(N)ncnc21 | 101

Read the next record carefully.
Req: I am curious: what residual activity value has been reported for COc1cc(C(=O)N2CCOCC2)c(F)cc1Nc1ncc(C(F)(F)F)c(NC2CC2)n1 ?
Resp: 101

###

# TESTED TARGET: BRSK1 (human)
# PROCEDURE TEXT: radiometric filter-binding kinase assay
# COND: compound 0.1 µM
Define the label as MET when residual activity is strictly less than 90% and as NOT MET in all remaining cases.

Please review the entries below; each comes with its answer.
- CN1CCN(CCOc2cc(OC3CCOCC3)c3c(Nc4c(Cl)ccc5c4OCO5)ncnc3c2)CC1: NOT MET
- CC1=C(CO)C(=O)O[C@@H]([C@@H](C)[C@H]2CC[C@H]3[C@@H]4C[C@H]5O[C@]56[C@@H](O)C=CC(=O)[C@]6(C)C4CC[C@]23C)C1 (stereo not given in full): NOT MET
- COc1ccc(N(C(=O)Nc2c(C)cccc2C)c2cc(Nc3ccc(N4CCN(C)CC4)cc3)ncn2)c(OC)c1: NOT MET
- COc1cc(O)c2c(c1)/C=C/C[C@H](O)[C@H](O)C(=O)/C=C\C[C@H](C)OC2=O: NOT MET
- Cc1cc(NC(=O)c2cccc(NC(=O)/C=C/CN(C)C)c2)ccc1Nc1nccc(-c2cccnc2)n1: NOT MET

Req: hey, is residual activity for CNc1nc(-c2ccc3c(N)n[nH]c3c2)cc(N2C[C@@H](C(=O)NC3CCCCC3)CC[C@H]2C)n1 lower than 90% or not?
Resp: NOT MET

Req: Record: CN(C)C/C=C/C(=O)Nc1cccc(C(=O)Nc2ccc(Nc3nccc(-c4cccnc4)n3)cc2)c1
Resp: NOT MET
